# TESTED_TARGET: dihydrofolate reductase (DHFR) (Homo sapiens)
# ASSAY_OVERVIEW: DHFR inhibitor screening assay
# Assay type: biochemical
# MEASUREMENT_PARAMETERS: read-out: percent inhibition of DHFR at 0.01 (μg/mL)
Recorded inhibition at 0.01 µg/mL, one value per entry.
Give the quantity in %, number only.

Worked examples, 3 compounds total:
{"columns": ["COMPOUND", "TESTED_TARGET", "QUANTITY_NAME", "TEST_VALUE"],
 "data": [
  ["CCOC(=O)c1cc(C#N)c(=O)n(NS(=O)(=O)c2ccc(C)cc2)c1N [15d]", "dihydrofolate reductase (DHFR) (Homo sapiens)", "inhibition at 0.01 µg/mL", 11.1],
  ["Nc1ccc(S(=O)(=O)Nc2ncccn2)cc1 [sulfadiazine, reference compound]", "dihydrofolate reductase (DHFR) (Homo sapiens)", "inhibition at 0.01 µg/mL", 28.7],
  ["CSc1c(-c2nc3ccccc3s2)c(N)n(NS(=O)(=O)c2ccc(C)cc2)c(=O)c1C#N", "dihydrofolate reductase (DHFR) (Homo sapiens)", "inhibition at 0.01 µg/mL", 19.9]
]}

Switching to the query record.
Look at this compound and give its reported inhibition at 0.01 µg/mL. Nc1n[nH]c2c(-c3nc4ccccc4s3)c(N)n(NS(=O)(=O)c3ccccc3)c(=O)c12
22.6

====

# TESTED_TARGET: dihydrofolate reductase (DHFR) (Homo sapiens)
# ASSAY_OVERVIEW: DHFR inhibitor screening assay
# Type: biochemical
# MEASUREMENT_PARAMETERS: read-out: percent inhibition of DHFR at 1 (μg/mL)
QUANTITY_NAME: inhibition at 1 µg/mL (%)
# unit: % | format: bare number

Look over these answered cases.
{"columns": ["MOLECULE", "TESTED_TARGET", "inhibition at 1 µg/mL / %"],
 "data": [
  ["CSc1c(-c2nc3ccccc3s2)c(N)n(NS(=O)(=O)c2ccc(C)cc2)c(=O)c1C#N [8b]", "dihydrofolate reductase (DHFR) (Homo sapiens)", 50.4],
  ["CCOC(=O)c1cc(C#N)c(=O)n(NS(=O)(=O)c2ccc(C)cc2)c1N [15d]", "dihydrofolate reductase (DHFR) (Homo sapiens)", 39.9],
  ["Nc1ccc(S(=O)(=O)Nc2ncccn2)cc1 [sulfadiazine, reference compound]", "dihydrofolate reductase (DHFR) (Homo sapiens)", 60.2]
]}

Next up:
Need inhibition at 1 µg/mL of Nc1n[nH]c2c(-c3nc4ccccc4s3)c(N)n(NS(=O)(=O)c3ccccc3)c(=O)c12 [9a] , thanks.
53.6

====

# ASSAY_OVERVIEW: Cytotoxicity test on Vero cell line
# Assay type: cell-based
# MEASUREMENT_PARAMETERS: African green monkey, uninfected Vero cells
QUANTITY_NAME: CC50 at 72 h
Reply with the number and its unit after it.

See these solved cases before continuing.
{"columns": ["COMPOUND", "CC50 at 72 h"],
 "data": [
  ["Nc1nc2c(ncn2COCCO)c(=O)[nH]1 [acyclovir, reference compound]", "2.8 mg/L"],
  ["CCOC(=O)c1cc(C#N)c(=O)n(NS(=O)(=O)c2ccccc2)c1N [15c]", "250 mg/L"]
]}

Please turn your attention to the following entry.
# lookup: CC50 at 72 h of CCOC(=O)c1cc(C#N)c(=O)n(NS(=O)(=O)c2ccc(C)cc2)c1N [15d]
220 mg/L

====

Target chain: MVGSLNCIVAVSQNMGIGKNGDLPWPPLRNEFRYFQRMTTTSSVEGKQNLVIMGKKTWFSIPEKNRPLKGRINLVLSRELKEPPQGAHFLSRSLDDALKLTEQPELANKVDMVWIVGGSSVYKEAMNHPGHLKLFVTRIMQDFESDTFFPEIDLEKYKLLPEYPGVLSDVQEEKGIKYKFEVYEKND
QUANTITY_NAME: pIC50
Would you please state pIC50, meaning minus log10 of the concentration in mol/L, as a bare number?

As a guide, the following entries are already answered.
{"columns": ["MOLECULE", "TEST_VALUE"],
 "data": [
  ["CSc1c(-c2nc3ccccc3s2)c(N)n(NS(=O)(=O)c2ccc(C)cc2)c(=O)c1C#N", 5.55],
  ["Nc1n[nH]c2c(-c3nc4ccccc4s3)c(N)n(NS(=O)(=O)c3ccccc3)c(=O)c12", 5.81],
  ["Nc1ccc(S(=O)(=O)Nc2ncccn2)cc1 [sulfadiazine, reference compound]", 6.10]
]}

Could you now consider this next molecule?
Query (molecule): CCOC(=O)c1cc(C#N)c(=O)n(NS(=O)(=O)c2ccc(C)cc2)c1N [15d] ; field requested: pIC50
4.91

====

# TESTED_TARGET: dihydrofolate reductase (DHFR) (Homo sapiens, UniProt P00374)
# Sequence (P00374 1-187): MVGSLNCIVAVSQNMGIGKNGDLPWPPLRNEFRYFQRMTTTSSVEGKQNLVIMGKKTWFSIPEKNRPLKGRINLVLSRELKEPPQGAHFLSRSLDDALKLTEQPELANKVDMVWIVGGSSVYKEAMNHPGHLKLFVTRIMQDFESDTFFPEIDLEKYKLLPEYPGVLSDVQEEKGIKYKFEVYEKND
# ASSAY_OVERVIEW: DHFR inhibitor screening assay
# Type: biochemical
# MEASUREMENT_PARAMETERS: read-out: percent inhibition of DHFR at 10 (μg/mL)
QUANTITY_NAME: inhibition at 10 µg/mL
Your reply should be a number followed by the unit it is expressed in.

Example entries begin here.
{"columns": ["COMPOUND", "QUANTITY_NAME", "TEST_VALUE"],
 "data": [
  ["CSc1c(-c2nc3ccccc3s2)c(N)n(NS(=O)(=O)c2ccc(C)cc2)c(=O)c1C#N [8b]", "inhibition at 10 µg/mL", "57.7%"],
  ["Nc1ccc(S(=O)(=O)Nc2ncccn2)cc1 [sulfadiazine, reference compound]", "inhibition at 10 µg/mL", "76.7%"],
  ["Nc1n[nH]c2c(-c3nc4ccccc4s3)c(N)n(NS(=O)(=O)c3ccccc3)c(=O)c12 [9a]", "inhibition at 10 µg/mL", "68.4%"]
]}

Look up inhibition at 10 µg/mL for this compound: CCOC(=O)c1cc(C#N)c(=O)n(NS(=O)(=O)c2ccc(C)cc2)c1N [15d]
56.1%
